- Tested on: Cutibacterium acnes
- Run description: In vitro antibacterial activity was tested for Propion acnes PA5-1
- Type: functional
I'd be grateful if you could share measured MIC for these entries.
Numbers only, in µg/mL.

For record `COc1c(N2CCC(N)CC2)c(F)c(N)c2c(=O)c(C(=O)O)cn(C3CC3)c12` the listed MIC is 3.1

For record `COc1c(N2CC[C@H](N)C2)c(F)c(N)c2c(=O)c(C(=O)O)cn(C3CC3)c12` the listed MIC is 1.6

For record `COc1c(N2CCNCC2)c(F)cc2c(=O)c(C(=O)O)cn(C3CC3)c12` the listed MIC is 0.4

For record CC1(CN)CCN(c2cc3c(cc2F)c(=O)c(C(=O)O)cn3C2CC2)C1 (centres undefined) the listed MIC is 1.6

For record COc1c(N2CC(C)NC(C)C2)c(F)cc2c(=O)c(C(=O)O)cn(C3CC3)c12 (centres undefined) the listed MIC is 0.4

Provide each entry's MIC from the list below.
1. CCOc1c(N2CCC(C)(CN)C2)c(F)cc2c(=O)c(C(=O)O)cn(C3CC3)c12 (centres undefined)
2. CCOc1c(N2CCC(N)C2)c(F)cc2c(=O)c(C(=O)O)cn(C3CC3)c12 (centres undefined)

Output:
3.1
3.1

Provide each entry's MIC from the list below.
1. NC1CCN(c2c(F)cc3c(=O)c(C(=O)O)cn(C4CC4)c3c2Cl)C1 (centres undefined)
2. NC1CCCN(c2c(F)cc3c(=O)c(C(=O)O)cn(C4CC4)c3c2F)C1 (centres undefined)

Output:
0.2
0.4

The reported numbers originate from ChEMBL document CHEMBL1128719.
